Target: human glucagon receptor (human, UniProt P47871 26-477)
Sequence (P47871 26-477): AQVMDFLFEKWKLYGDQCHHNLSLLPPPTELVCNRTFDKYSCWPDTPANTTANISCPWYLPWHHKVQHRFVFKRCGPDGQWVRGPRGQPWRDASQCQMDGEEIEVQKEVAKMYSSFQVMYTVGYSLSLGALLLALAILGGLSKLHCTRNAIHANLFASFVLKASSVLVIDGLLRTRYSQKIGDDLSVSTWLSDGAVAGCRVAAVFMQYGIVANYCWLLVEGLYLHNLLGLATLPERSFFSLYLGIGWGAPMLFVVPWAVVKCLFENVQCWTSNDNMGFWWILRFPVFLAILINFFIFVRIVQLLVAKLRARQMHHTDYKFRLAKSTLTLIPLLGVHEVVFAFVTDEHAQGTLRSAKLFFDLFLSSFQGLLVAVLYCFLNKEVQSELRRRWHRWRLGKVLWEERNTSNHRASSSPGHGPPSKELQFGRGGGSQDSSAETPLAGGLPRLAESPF
Assay: cell-based or functional assay
*1 amine or outer side, *2 acyl side, *3 side chain or, on linkers, in order; H or OH if unused. Side-chain parts run from the residue outwards. [ ]: non-standard residue; d: D form. The star is where a group is joined. C18 diacid = O=C(O)CCCCCCCCCCCCCCCCC(=O)*; γGlu = O=C(O)[C@H](CCC(=O)[*:2])N[*:1]; Desaminohistidyl = O=C(CCc1c[nH]cn1)*; Ac4c = NC1(C(=O)O)CCC1
Measured parameter: EC50 GlucagonR [pM], CRE luciferase reporter gene assay (pM)
Dear colleague, please return just the value in pM, with no unit written.

Recorded result, XXHGTFTSDYSKYLERRAAREFIAWLLKK (Imp (desamino-His) at 7; Acb at 8; Lys35 N-epsilon acylated with 17-carboxyheptadecanoyl-γGlu-γGlu-Ado-γGlu-Ado-γGlu-Ado-γGlu-; C-terminal amide (GLP-1(7-37) numbering)) , EC50 GlucagonR [pM], CRE luciferase reporter gene assay: 54

get_value(item= [Desaminohistidyl]GHGTFTSDVSRYLEEQAAREFIAWLLK([Gly-Ser-Glu-Gly-Ser-γGlu-γGlu-C18 diacid])T-NH2 , readout=EC50 GlucagonR [pM], CRE luciferase reporter gene assay) returns 459

Form: binder = [Desaminohistidyl][Ac4c]HGTFTSDVSKYLEEQAAREFIAWLLKK([Gly-Ser-Glu-Gly-Ser-γGlu-γGlu-C18 diacid])-NH2 ; EC50 GlucagonR [pM], CRE luciferase reporter gene assay = 163
